The reported measurements were obtained from patent US12037333B2.

- System: Influenza type A (strain A/PR/8/34, ATCC VR-95)
- procedure.details: Influenza antiviral assay: inhibition of virus-induced cytopathic effects (CPE) in MDCK cells, XTT dye reduction
- Assay type: cell-based
- measurement.conditions: Influenza A virus, H1N1 / PR/8, MDCK, 96 h, strain A/PR/8/34, MDCK cells, CPE inhibition at 4 days
pEC50: −log10 of the molar value.
# pEC50 annotations

Example entries begin here.
compound="O=C1c2c(O)c(=O)ccn2N(C23c4ccccc4CC2Cc2c(F)cccc23)CN1CC(F)F (centres unmarked) [Compound A83]" observed="> 6.90"
compound="CCN1CN(C23c4ccccc4CC2(C)Cc2ccccc23)n2ccc(=O)c(O)c2C1=O (centres unmarked) [Compound A147]" observed="> 6.90"
compound="CCN1CN(C23c4ccccc4CC2Cc2c3ccc(F)c2Cl)n2ccc(=O)c(O)c2C1=O (centres unmarked) [Compound A47]" observed="> 6.90"
compound="CC(C)N1CN(C23c4cccc(F)c4CC2(C)Cc2c(F)cccc23)n2ccc(=O)c(O)c2C1=O (centres unmarked) [Compound A89]" observed="6.60 to 6.90"

Shifting focus to the compound that follows.
Inquiry: What does the record list as pEC50 for CCN1CN(C23c4ccccc4CC2Cc2c(C)cccc23)n2ccc(=O)c(O)c2C1=O (centres unmarked) [Compound A82] ?
Reply text: > 6.90
